Cited source for all entries: BindingDB's records for doi:10.1021/jm0500875

Recorded measurements of Ki, one per entry
study_system: 72 kDa type IV collagenase (Homo sapiens)
Sequence (P08253 whole entry): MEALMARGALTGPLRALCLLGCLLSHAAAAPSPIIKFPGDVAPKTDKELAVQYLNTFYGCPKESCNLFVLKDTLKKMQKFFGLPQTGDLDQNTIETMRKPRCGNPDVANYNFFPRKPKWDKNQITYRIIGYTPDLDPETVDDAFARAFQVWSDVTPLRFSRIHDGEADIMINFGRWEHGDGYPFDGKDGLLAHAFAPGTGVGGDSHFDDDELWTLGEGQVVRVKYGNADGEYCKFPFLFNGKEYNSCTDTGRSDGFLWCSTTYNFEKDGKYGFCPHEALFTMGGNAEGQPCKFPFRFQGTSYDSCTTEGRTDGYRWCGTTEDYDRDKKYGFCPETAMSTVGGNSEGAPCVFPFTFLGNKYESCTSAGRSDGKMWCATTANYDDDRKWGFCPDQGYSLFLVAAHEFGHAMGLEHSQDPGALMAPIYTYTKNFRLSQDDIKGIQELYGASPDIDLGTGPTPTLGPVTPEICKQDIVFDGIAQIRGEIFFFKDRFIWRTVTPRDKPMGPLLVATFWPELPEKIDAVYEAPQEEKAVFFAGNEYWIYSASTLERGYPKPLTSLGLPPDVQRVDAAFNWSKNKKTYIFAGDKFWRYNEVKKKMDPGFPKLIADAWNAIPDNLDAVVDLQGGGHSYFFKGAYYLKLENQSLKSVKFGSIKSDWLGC
Report as a plain number; the unit nM is understood.

Observe how each entry below is paired with its result.
COCCN1CCC(C(=O)NO)(S(=O)(=O)c2ccc(Sc3ccccc3)cc2)CC1
0.3
CS(=O)(=O)N1CCC(C(=O)NO)(S(=O)(=O)c2ccc(Sc3ccccc3)cc2)CC1
2
C=CCN1CCC(C(=O)NO)(S(=O)(=O)c2ccc(Sc3ccccc3)cc2)CC1
0.15
O=C(NO)C1(CS(=O)(=O)c2ccc(Oc3ccccc3)cc2)CCN(CCc2ccccc2)CC1
0.3
O=C(NO)C1(S(=O)(=O)c2ccc(Sc3ccccc3)cc2)CCN(C2CC2)CC1
0.1
O=C(CS(=O)(=O)c1ccc(Oc2ccccc2)cc1)NO
2.6
C#CCN1CCC(C(=O)NO)(S(=O)(=O)c2ccc(Oc3ccccc3)cc2)CC1
0.13

// switching to the query molecule
// query Under 72 kDa type IV collagenase (Homo sapiens): Ki value of `COc1cccc(CN2CCC(CS(=O)(=O)c3ccc(Oc4ccccc4)cc3)(C(=O)NO)CC2)c1` ?
// result 0.2

###

study_system: UniProt P45452
Mark each entry Satisfied if its Ki sits below 0.3 nM, and Not satisfied for all others.

CCN1CCC(C(=O)NO)(S(=O)(=O)c2ccc(Sc3ccccc3)cc2)CC1
Not satisfied
COCCN1CCC(C(=O)NO)(S(=O)(=O)c2ccc(Oc3ccccc3)cc2)CC1
Satisfied
C#CCN1CCC(CS(=O)(=O)c2ccc(Oc3ccccc3)cc2)(C(=O)NO)CC1
Not satisfied
COCCN1CCC(C(=O)NO)(S(=O)(=O)c2ccc(Sc3ccccc3)cc2)CC1
Not satisfied
C#CCN1CCC(C(=O)NO)(S(=O)(=O)c2ccc(Oc3ccccc3)cc2)CC1
Satisfied

// query Please let me know if `CC(=O)N1CCC(C(=O)NO)(S(=O)(=O)c2ccc(Sc3ccccc3)cc2)CC1` shows Ki below 0.3 nM.
// result Not satisfied

// query Also need `O=C(CS(=O)(=O)c1ccc(Oc2ccccc2)cc1)NO` , thanks.
// result Not satisfied

// query Also need `O=C(NO)C1(CS(=O)(=O)c2ccc(Oc3ccccc3)cc2)CCNCC1` , thanks.
// result Not satisfied

// query Also need `CC(C)(C)OC(=O)N1CCC(CS(=O)(=O)c2ccc(Oc3ccccc3)cc2)(C(=O)NO)CC1` , thanks.
// result Satisfied

###

What follows is a collection of pKi values obtained with Matrix metalloproteinase-9 (Homo sapiens, UniProt P14780).
Sequence (P14780 whole entry): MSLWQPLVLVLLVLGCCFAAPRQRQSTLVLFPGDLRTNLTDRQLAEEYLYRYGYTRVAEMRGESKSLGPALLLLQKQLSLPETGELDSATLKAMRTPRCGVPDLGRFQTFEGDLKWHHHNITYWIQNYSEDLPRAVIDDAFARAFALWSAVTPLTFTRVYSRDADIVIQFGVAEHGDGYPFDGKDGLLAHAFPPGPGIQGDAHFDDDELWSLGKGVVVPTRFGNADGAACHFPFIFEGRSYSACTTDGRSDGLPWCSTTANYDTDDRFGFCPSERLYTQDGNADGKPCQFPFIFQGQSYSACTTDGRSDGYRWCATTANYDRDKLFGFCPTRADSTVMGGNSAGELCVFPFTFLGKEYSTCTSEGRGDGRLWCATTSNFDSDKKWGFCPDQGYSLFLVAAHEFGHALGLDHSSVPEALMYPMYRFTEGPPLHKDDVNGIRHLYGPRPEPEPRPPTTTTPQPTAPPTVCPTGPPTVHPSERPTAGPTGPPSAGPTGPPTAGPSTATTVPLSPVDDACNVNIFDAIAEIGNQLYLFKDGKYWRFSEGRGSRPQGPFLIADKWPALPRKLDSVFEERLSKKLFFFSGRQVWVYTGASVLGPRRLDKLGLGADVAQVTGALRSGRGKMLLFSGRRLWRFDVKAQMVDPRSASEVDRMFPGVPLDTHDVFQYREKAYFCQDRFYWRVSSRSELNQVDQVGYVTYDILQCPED
Please treat pKi as minus the base-10 logarithm of the molar concentration.

Observe how each entry below is paired with its result.
CC(=O)N1CCC(C(=O)NO)(S(=O)(=O)c2ccc(Sc3ccccc3)cc2)CC1
8.10
O=C(NO)C1(S(=O)(=O)c2ccc(Oc3ccccc3)cc2)CCNCC1
8.30
CS(=O)(=O)N1CCC(C(=O)NO)(S(=O)(=O)c2ccc(Oc3ccccc3)cc2)CC1
9.00
C#CCN1CCC(CS(=O)(=O)c2ccc(Oc3ccc(C)c(C)c3)cc2)(C(=O)NO)CC1
8.15

// switching to the query compound
// query Please report the recorded pKi for `C#CCN1CCC(CS(=O)(=O)c2ccc(Oc3ccccc3)cc2)(C(=O)NO)CC1` .
// result 8.35

###

Recorded measurements of Ki, one per entry
study_system: Interstitial collagenase (Homo sapiens, UniProt P03956)
Sequence (P03956 whole entry): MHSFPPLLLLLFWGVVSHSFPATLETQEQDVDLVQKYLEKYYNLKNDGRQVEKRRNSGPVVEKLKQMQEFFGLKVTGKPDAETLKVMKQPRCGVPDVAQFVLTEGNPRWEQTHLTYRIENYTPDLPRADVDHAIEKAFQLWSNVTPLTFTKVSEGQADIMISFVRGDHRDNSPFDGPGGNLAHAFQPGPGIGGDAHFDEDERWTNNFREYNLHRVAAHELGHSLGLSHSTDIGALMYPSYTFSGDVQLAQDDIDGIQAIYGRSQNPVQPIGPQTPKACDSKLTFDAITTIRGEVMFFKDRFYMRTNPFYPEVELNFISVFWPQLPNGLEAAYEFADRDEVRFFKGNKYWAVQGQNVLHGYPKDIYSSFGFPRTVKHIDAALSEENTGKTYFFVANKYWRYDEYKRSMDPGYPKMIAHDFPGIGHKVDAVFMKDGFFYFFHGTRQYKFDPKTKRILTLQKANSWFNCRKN
measurement_description: Enzyme Inhibition Assay
Report as a plain number; the unit µM is understood.

Observe how each entry below is paired with its result.
CS(=O)(=O)N1CCC(C(=O)NO)(S(=O)(=O)c2ccc(Oc3ccccc3)cc2)CC1
0.8
O=C(CS(=O)(=O)c1ccc(Oc2ccccc2)cc1)NO
6.6
CC(C)(C(=O)NO)S(=O)(=O)c1ccc(Oc2ccccc2)cc1
0.22
CC(=O)N1CCC(C(=O)NO)(S(=O)(=O)c2ccc(Oc3ccccc3)cc2)CC1
0.464

// query Please report the recorded Ki for `C#CCN1CCC(C(=O)NO)(S(=O)(=O)c2ccc(Sc3ccccc3)cc2)CC1` .
// result 8.66

// query Also need `CC(=O)N1CCC(C(=O)NO)(S(=O)(=O)c2ccc(Sc3ccccc3)cc2)CC1` , thanks.
// result 7.3
